Kindly supply the reported Selectivity Index (SI) values for the records listed here.
Molecular target: Human recombinant MAO-B (hMAO-B) (Homo sapiens)
Construct: purchased Sigma-Aldrich; host or cells: insect cells
Assay: MAO-B inhibition assay (Amplex Red fluorescence, benzylamine substrate)
Type: biochemical
Settings: ratio of IC50 (MAO-A)/IC50 (MAO-B)

{"columns": ["molecule", "testedSystem", "Selectivity Index (SI)"],
 "data": [
  ["O=C(Nc1ccc2c(c1)OCO2)c1ccc2[nH]ccc2c1", "Human recombinant MAO-B (hMAO-B) (Homo sapiens)", ">220"]
]}

For every record below, what is its Selectivity Index (SI)?
1. COC(=O)c1ccc2c(ccn2C(=O)c2ccc(Cl)c(Cl)c2)c1
2. O=C(Nc1ccc(I)cc1)c1ccc2[nH]ccc2c1 [Compound 8a, N-(4-iodophenyl)-1H-indole-5-carboxamide]
3. O=C(Nc1ccc(Br)cc1)c1ccc2[nH]ccc2c1

[reply]
>305
>3649
>3278

* * *

Test system: PC12 cells
Assay: Rotenone-induced ROS generation in PC12 cells (H2-DCFDA)
Format: cell-based, rat
Settings: 10 μM compound, rotenone 1 μM 20 h
assayMetric: Effect on rotenone-induced intracellular ROS production

{"columns": ["structureNotation", "testedSystem", "value"],
 "data": [
  ["O=C(Nc1ccc(Br)cc1)c1ccc2[nH]ccc2c1", "PC12 cells", "attenuated"],
  ["O=C(Nc1ccc2c(c1)OCO2)c1ccc2[nH]ccc2c1", "PC12 cells", "attenuated"],
  ["COC(=O)c1ccc2c(ccn2C(=O)c2ccc(Cl)c(Cl)c2)c1", "PC12 cells", "attenuated"]
]}

* * *

Target: Human recombinant MAO-A (hMAO-A) (Homo sapiens, UniProt P21397)
Construct: purchased Sigma-Aldrich; host or cells: insect cells
Sequence (P21397 whole entry): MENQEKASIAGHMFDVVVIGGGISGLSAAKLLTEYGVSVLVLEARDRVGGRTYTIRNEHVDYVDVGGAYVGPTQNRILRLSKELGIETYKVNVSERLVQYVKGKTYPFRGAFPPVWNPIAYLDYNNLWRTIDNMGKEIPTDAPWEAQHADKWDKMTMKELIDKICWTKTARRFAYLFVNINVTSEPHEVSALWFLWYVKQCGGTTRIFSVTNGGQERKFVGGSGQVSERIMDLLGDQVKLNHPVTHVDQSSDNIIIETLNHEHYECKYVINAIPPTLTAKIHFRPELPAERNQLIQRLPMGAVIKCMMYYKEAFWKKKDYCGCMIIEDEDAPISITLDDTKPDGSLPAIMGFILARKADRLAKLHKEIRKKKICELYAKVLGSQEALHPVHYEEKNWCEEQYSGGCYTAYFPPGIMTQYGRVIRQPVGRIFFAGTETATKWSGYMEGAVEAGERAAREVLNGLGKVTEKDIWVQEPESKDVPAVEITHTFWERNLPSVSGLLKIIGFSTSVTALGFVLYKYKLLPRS
Assay: MAO-A inhibition assay (Amplex Red fluorescence, p-tyramine substrate)
Format: biochemical
Field: inhibition at 30 µM. Provide a value for each of the compounds that follow.
Give bare numbers, in %.

{"columns": ["compound", "measurementUnits", "inhibition at 30 µM"],
 "data": [
  ["O=C(Nc1ccc(I)cc1)c1ccc2[nH]ccc2c1 [Compound 8a, N-(4-iodophenyl)-1H-indole-5-carboxamide]", "%", 21.7]
]}

Then this compound:
[ask] What does the data say about its inhibition at 30 µM? Entry: O=C(Nc1ccc(Br)cc1)c1ccc2[nH]ccc2c1
[reply] 27.9

* * *

Target: Human recombinant MAO-B (hMAO-B) (Homo sapiens, UniProt P27338)
Construct: purchased Sigma-Aldrich; host or cells: insect cells
Sequence (P27338 whole entry): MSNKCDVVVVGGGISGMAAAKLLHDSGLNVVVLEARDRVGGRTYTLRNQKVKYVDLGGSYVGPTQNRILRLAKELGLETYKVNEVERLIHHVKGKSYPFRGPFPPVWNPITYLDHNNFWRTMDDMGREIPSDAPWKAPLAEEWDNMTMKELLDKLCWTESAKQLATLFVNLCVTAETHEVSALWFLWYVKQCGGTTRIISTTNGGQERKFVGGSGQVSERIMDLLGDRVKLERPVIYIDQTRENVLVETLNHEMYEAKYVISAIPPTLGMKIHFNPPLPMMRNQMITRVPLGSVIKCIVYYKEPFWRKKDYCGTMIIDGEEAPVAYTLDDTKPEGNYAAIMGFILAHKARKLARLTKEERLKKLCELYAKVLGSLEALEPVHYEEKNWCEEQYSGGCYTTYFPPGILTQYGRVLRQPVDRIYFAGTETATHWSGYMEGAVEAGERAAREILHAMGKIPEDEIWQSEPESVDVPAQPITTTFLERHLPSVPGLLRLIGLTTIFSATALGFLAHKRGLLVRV
Assay: MAO-B inhibition assay (Amplex Red fluorescence, benzylamine substrate)
Assay type: biochemical
Conditions: single dose 10 µM
assayMetric: inhibition at 10 µM

{"columns": ["compound", "assayMetric", "value"],
 "data": [
  ["O=C(c1cccc(F)c1)n1ccc2cc(NC(=S)Nc3ccc(Cl)c(Cl)c3)ccc21", "inhibition at 10 µM", "59.8%"],
  ["CCOC(=O)CNC(=O)Nc1ccc2c(ccn2C(=O)c2cccc(F)c2)c1", "inhibition at 10 µM", "9.9%"],
  ["COC(=O)c1ccc2c(ccn2C(=O)c2cccc(F)c2)c1", "inhibition at 10 µM", "49.8%"],
  ["O=C(c1cccc(F)c1)n1ccc2cc(NC(=S)Nc3ccc([N+](=O)[O-])cc3)ccc21", "inhibition at 10 µM", "30.6%"],
  ["O=C(Nc1ccc([N+](=O)[O-])cc1)Nc1ccc2c(ccn2C(=O)c2cccc(F)c2)c1", "inhibition at 10 µM", "47.9%"]
]}

Can you give me inhibition at 10 µM for all of these, one by one?
1. CCOC(=O)C(=O)Nc1ccc2c(ccn2C(=O)c2cccc(F)c2)c1
2. O=C(Nc1ccc(F)cc1)Nc1ccc2c(ccn2C(=O)c2cccc(F)c2)c1
3. O=C(Nc1ccc2c(ccn2C(=O)c2cccc(F)c2)c1)c1coc2ccccc2c1=O
4. CCOC(=O)Nc1ccc2c(ccn2C(=O)c2cccc(F)c2)c1
5. O=C(Nc1ccc(I)cc1)c1ccc2[nH]ccc2c1 [Compound 8a, N-(4-iodophenyl)-1H-indole-5-carboxamide]
6. CCNC(=O)Nc1ccc2c(ccn2C(=O)c2cccc(F)c2)c1
7. COC(=O)c1ccc2c(ccn2C(=O)c2ccc(Cl)c(Cl)c2)c1

[reply]
1. 35.5%
2. 37%
3. 59.6%
4. 33.8%
5. > 99%
6. 46.2%
7. 84.1%
